Tested on: Aβ40
Experiment: Cellular Aβ-lowering assay
Assay type: cell-based
Details: HEK293 cells stably expressing human APP695, Aβ40 in supernatant by ELISA after 18-20 hrs; read-out: Cellular assay Abeta40 IC50
pIC50: −log10 of the molar value.
Classify as follows. Reported pIC50 greater than or equal to 7: t. Reported pIC50 below: f.

CCn1cc(Cl)c(C(=O)Nc2ccc(F)c([C@@]3(CC)N=C(N)COCC3(F)F)c2)n1 [Example 91]: f

Moving on to another molecule below.
Task item: Record C[C@]1(c2cc(NC(=O)c3nn(C(F)F)cc3Cl)ccc2F)N=C(N)COC[C@@H]1F [Example 115] ; criterion: pIC50 no lower than 7. Met?
Reply: t
